Reported values of IC50 for individual entries
Biological target: T1, human IL-2Rβ (CD122 protein, Fc Tag) (27-239) (human, UniProt P14784 27-239)
T1 construct: range 27-239; Bought protein; also called hu-IL-2Rβ subunit; IL-2Rβ subunit; not shown: Fc tag of the bought protein
T1 sequence (looked up): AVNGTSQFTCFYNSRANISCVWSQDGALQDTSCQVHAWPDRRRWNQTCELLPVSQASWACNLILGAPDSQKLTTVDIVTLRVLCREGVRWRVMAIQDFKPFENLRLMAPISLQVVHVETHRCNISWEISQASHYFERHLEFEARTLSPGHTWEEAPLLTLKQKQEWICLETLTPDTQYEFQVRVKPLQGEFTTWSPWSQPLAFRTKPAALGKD
Assay: IL-2Rβ IC50, assay not named in Example 29
Primed or numbered codes have the meaning given here. Ends that are not written are not given here. PEG10 = NCCOCCOCCOCCOCCOCCOCCOCCOCCOCCOCCC(=O)O; PEG20′ = not defined here; PEG4′ = not defined here
Give a bare numeral; the unit nM is implied.

As a guide, the following entries are already answered.
| Binder | IC50 (nM) |
| --- | --- |
| {PEG 20 kDa linear-PEG20′}-GGWYPCWMAQLGELCDLDGGGGSGGVVCQDWEGVELCWQGG (cysteine pairing not given here; reading uncertain) [PEG-IL-2Rβγc ligand construct PEG-5] | 33 |
| GGWYPCWMAQLGELCDLDGGGGSGGVVCQDWEGVELCWQGG-{PEG4′-PEG 40 kDa branched} (cysteine pairing not given here) [PEG-IL-2Rβγc ligand construct PEG-2] | 8 |
| {PEG 40 kDa linear-PEG20′}-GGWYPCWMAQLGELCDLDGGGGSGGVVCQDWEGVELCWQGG (cysteine pairing not given here; reading uncertain) [PEG-IL-2Rβγc ligand construct PEG-6] | 17 |
| PEG-IL-2Rβγc ligand construct PEG-3 (cysteine pairing not given here) peptide: {PEG 40 kDa branched}-APAPAPAPAPAPGGWYPCWMAQLGELCDLDGGGGSGGVVCQDWEGVELCWQGG | 14 |
| {PEG 40 kDa branched-PEG20′}-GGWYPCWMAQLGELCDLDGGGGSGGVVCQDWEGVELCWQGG (cysteine pairing not given here; reading uncertain) [PEG-IL-2Rβγc ligand construct PEG-7] | 3.4 |
| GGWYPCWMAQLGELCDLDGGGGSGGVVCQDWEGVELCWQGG-{PEG10-PEG 40 kDa branched} (cysteine pairing not given here) [PEG-IL-2Rβγc ligand construct PEG-4] | 8.5 |

Proceed to the following item.
Lookup: // lookup IC50 for {PEG 40 kDa branched-PEG10}-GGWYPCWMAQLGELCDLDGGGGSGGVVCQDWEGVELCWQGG (not fully specified; printed as -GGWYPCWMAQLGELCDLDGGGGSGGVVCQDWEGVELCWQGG-; cysteine pairing not given here) [PEG-IL-2Rβγc ligand construct PEG-1]
Found: 31
